assay: SK-BR-3 cell growth inhibitors, pilot screen, 24 h, human (AID 572); details: SK-BR-3 viability, CellTiter-Glo luminescence, at 10 µM, stronger effect = lower value;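 also: compound exposure lasted between 18 and 24 h rather than exactly 24 h; 100% = carrier-treated control wells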
Measured endpoint: viability (%)
Numbers only, in %.

The cases that follow already have their viability on record.
CCOC(=O)c1c(NC(=O)Cn2c(C)nc3ccccc32)sc2c1CCC2: 107
N#CCC(=O)Nc1ncn(Cc2ccccc2Cl)n1: 95
O=C(c1ccc(S(=O)(=O)N2CCC(c3nc4ccccc4s3)CC2)cc1)N1CCOCC1: 97
Cc1cccc(NC(=O)c2cnc3sccn3c2=O)n1: 99
Cc1cccc2cc(C#N)c(NCCNC(=O)NC3CCCCC3)nc12: 97.5

Exercise: Check the records and state viability for CCCCC(CC)C(=O)Nc1ccccc1C#N (stereo unspecified)
Solution: 96
